Reference for the values: patent US20240417458A1

Target: T1, soluble human RGMa (human, UniProt Q96B86 48-422, limits assumed)
T1 construct: Soluble antigen in BIAcore; also called huRGMa; repulsive guidance molecule A
T1 sequence (looked up): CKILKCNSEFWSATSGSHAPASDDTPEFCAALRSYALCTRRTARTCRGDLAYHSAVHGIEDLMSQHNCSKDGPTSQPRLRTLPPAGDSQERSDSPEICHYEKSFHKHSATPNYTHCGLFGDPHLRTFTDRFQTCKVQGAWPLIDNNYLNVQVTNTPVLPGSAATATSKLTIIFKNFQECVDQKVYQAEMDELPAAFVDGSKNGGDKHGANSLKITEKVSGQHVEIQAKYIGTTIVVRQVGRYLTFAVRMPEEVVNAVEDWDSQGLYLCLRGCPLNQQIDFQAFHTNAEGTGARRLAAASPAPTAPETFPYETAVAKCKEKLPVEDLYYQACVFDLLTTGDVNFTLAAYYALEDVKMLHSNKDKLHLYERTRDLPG
Test: SPR (BIAcore);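 note: Anti-HJV antibodies tested for binding against soluble human RGMa by surface plasmon resonance on a BIAcore instrument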
Attribute Measured: koff (s⁻¹)
Reply with just the number (in s⁻¹).

| Binder | Units Symbol | koff |
| --- | --- | --- |
| hHA-006 (antibody, human IgG1, kappa, L234A L235A, V domains shown, hIgG1 L234A, L235A, kappa) VH: EVQLVESGGGLVQPGGSLRLSCAASGFTFSYYGMNWIRQAPGKGLEWIGMIYYDSSEKHYADSVKGRFTISRDNSKNTLYLQMNSLRAEDTAVYYCAKGTTPDYWGQGTMVTVSS VL: DVVLTQSPLSLPVTLGQPASISCRSSQSLEDSDGGTFLEWFQQRPGQSPRLLIYDVSSRFSGVPDRFSGSGSGTDFTLKISRVEAEDVGVYYCFQATHDPLTFGQGTKLEIKR | s⁻¹ | 0.00014 |

Lab note: measured koff of hHA-010 (antibody, human IgG1, kappa, L234A L235A, V domains shown, hIgG1 L234A, L235A, kappa) VH: EVQLVESGGGLVQPGGSLRLSCAASGFTFSNYGMNWVRQAPGKGLEWIGMIYYDSSEKHYADSVKGRFTISRDNSKNTLYLQMNSLRAEDTAVYYCAKGTTPDKWGQGTMVTVSS VL: DVVLTQSPLSLPVTLGQPASISCRSSQSLEESDGYTFLEWFQQRPGQSPRLLIYEVSHRFSGVPDRFSGSGSGTDFTLKISRVEAEDVGVYYCFQATHDPLTFGQGTKLEIKR was 0.0001
